// provenance: patent US20180030151A1

Measurement Target: recombinant human TFPI (tissue factor pathway inhibitor) (human, UniProt P10646 29-304)
Test Name: cell-based or functional assay
Here the recorded A405, TF/FVIIa/FX complex assay (FX 5 nM), Ab 1.56 nM is given for each entry.
# print the numeric value only

Qu. Which A405, TF/FVIIa/FX complex assay (FX 5 nM), Ab 1.56 nM value is on record for clone 8 (antibody, V domains shown) VH: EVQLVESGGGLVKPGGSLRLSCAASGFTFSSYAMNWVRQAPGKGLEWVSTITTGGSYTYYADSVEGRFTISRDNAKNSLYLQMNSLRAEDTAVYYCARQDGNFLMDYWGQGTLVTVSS VL: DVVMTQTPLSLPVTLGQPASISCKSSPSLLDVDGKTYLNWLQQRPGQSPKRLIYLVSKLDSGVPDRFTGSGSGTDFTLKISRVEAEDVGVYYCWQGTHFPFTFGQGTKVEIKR ?
Ans. 0.041

Qu. Next: clone 3 (antibody, V domains shown) VH: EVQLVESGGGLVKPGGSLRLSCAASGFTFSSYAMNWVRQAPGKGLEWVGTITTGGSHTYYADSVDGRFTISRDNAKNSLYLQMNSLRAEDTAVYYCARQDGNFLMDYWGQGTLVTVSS VL: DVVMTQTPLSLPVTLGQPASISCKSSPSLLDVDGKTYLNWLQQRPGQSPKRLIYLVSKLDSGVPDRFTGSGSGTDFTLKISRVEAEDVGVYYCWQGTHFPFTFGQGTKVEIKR
Ans. 0.045

Qu. Next: clone 2 (antibody, V domains shown) VH: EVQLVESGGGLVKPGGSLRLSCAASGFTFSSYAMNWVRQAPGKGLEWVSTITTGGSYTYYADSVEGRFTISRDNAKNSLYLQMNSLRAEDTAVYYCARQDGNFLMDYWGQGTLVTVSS VL: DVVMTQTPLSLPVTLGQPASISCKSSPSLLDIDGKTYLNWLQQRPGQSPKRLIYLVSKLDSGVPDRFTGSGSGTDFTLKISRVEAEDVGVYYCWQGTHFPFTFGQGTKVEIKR
Ans. 0.045

Qu. Next: clone 1023 (antibody, V domains shown, scFv on yeast at selection; human IgG4/kappa IgG as purified) VH: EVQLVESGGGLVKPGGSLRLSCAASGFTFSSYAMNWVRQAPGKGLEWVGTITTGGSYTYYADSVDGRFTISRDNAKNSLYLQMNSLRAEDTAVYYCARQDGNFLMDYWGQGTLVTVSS VL: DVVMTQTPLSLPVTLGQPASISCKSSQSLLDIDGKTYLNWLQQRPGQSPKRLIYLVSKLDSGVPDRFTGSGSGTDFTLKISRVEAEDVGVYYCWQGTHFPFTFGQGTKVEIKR
Ans. 0.05
